Overview of reported OD450 across a group of binders:
Molecular target: T1, human CD22-ECD-His protein (human, UniProt P20273 20-687)
T1 construct: Made in house in HEK293E; also called hCD22-ECD-His; recombinant human CD22-ECD His protein; not shown: His tag
T1 sequence: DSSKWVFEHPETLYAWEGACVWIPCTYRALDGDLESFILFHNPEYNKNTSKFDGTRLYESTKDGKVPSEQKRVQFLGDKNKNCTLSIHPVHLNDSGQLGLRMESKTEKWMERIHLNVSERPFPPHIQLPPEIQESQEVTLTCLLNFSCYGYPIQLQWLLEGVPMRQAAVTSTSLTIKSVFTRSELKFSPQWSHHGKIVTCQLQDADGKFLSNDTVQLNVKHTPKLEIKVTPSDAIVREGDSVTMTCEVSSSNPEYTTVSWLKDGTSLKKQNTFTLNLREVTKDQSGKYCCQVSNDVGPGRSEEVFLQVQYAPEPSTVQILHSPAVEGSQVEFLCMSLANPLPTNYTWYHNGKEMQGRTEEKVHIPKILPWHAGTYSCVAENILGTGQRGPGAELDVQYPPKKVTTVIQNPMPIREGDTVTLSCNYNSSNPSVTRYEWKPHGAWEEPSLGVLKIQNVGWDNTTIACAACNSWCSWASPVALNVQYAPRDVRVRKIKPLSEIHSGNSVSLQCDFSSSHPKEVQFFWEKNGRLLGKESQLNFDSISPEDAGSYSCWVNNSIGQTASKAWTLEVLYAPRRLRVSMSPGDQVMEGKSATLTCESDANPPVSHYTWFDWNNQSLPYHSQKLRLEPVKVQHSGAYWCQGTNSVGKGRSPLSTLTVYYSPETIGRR
Assay: ELISA, Ab 0.00001 nM

{"binder": "HA22-hIgG1 (antibody, V domains shown) VH: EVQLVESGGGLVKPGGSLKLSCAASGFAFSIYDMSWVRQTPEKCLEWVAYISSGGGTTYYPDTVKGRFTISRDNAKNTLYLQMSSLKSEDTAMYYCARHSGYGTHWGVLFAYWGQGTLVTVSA VL: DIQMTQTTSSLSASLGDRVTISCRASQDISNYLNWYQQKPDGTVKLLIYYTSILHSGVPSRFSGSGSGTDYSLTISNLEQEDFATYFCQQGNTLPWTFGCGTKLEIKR", "OD450 (OD450)": 0.19}
{"binder": "F2.99.1 (antibody, human IgG1, lambda, V domains shown, Human-murine chimeric IgG1, lambda) VH: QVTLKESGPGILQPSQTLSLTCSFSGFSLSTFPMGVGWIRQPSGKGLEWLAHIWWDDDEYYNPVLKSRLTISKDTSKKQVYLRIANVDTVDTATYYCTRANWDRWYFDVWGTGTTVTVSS VL: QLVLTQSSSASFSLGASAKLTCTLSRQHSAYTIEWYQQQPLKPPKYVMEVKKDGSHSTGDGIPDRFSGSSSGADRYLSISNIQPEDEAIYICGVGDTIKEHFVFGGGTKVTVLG", "OD450 (OD450)": 0.08}
{"binder": "F1.172.13 (antibody, human IgG1, kappa, V domains shown, Human-murine chimeric IgG1, kappa) VH: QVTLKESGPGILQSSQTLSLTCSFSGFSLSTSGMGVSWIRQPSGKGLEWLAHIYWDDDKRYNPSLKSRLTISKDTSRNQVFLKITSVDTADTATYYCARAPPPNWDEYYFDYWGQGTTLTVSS VL: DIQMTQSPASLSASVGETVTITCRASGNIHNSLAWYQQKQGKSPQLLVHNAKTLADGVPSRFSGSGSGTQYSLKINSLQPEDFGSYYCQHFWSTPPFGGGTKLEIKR", "OD450 (OD450)": 0.1}
{"binder": "F1.250.16 (antibody, human IgG1, kappa, V domains shown, Human-murine chimeric IgG1, kappa) VH: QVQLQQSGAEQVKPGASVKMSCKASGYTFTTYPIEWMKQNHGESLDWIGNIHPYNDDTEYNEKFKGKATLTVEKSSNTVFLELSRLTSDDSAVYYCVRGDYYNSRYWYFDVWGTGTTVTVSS VL: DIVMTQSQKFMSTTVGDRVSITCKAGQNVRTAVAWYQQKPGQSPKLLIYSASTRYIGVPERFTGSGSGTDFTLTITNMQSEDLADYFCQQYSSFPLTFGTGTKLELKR", "OD450 (OD450)": 0.12}
{"binder": "F1.17.1 (antibody, human IgG1, kappa, V domains shown, Human-murine chimeric IgG1, kappa) VH: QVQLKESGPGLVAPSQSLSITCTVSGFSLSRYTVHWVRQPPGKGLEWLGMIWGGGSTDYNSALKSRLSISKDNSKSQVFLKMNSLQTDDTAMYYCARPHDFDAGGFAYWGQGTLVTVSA VL: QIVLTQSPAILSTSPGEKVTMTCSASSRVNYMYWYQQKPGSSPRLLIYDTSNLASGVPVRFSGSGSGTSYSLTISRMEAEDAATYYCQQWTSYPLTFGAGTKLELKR", "OD450 (OD450)": 0.11}
{"binder": "F2.151.13 (antibody, human IgG1, lambda, V domains shown, Human-murine chimeric IgG1, lambda) VH: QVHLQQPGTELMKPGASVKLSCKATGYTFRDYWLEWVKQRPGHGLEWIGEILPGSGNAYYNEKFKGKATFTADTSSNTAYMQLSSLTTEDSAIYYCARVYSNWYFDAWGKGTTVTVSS VL: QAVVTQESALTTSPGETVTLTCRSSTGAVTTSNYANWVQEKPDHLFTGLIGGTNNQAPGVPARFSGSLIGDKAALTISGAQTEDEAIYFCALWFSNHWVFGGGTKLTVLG", "OD450 (OD450)": 0.1}
{"binder": "F2.121.9 (antibody, human IgG1, lambda, V domains shown, Human-murine chimeric IgG1, lambda) VH: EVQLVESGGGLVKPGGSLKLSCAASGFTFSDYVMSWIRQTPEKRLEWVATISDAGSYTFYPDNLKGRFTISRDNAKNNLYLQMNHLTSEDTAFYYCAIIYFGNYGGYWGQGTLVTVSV VL: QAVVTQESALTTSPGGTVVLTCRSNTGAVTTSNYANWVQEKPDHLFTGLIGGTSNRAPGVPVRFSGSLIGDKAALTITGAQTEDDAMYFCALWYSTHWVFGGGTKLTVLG", "OD450 (OD450)": 0.23}
{"binder": "F2.205.9 (antibody, human IgG1, lambda, V domains shown, Human-murine chimeric IgG1, lambda) VH: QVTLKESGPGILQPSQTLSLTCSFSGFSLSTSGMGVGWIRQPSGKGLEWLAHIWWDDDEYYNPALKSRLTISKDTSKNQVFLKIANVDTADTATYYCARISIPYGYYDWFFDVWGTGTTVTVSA VL: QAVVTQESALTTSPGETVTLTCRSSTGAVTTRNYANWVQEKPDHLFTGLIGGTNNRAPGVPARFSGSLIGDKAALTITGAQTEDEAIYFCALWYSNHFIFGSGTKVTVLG", "OD450 (OD450)": 0.19}
